tested on: A549 NSCLC; assay: NCI tumour cell line growth inhibition, 48 h; in the data active = GI50 below about 0.43 µM; inactive = the rest
The reply should name one outcome from label 1 for active, label 0 for inactive

Ask | What did this assay record as the result for COc1ccc2nc3cc(Cl)ccc3c(NCCCNCCC(C)O)c2c1 (centres undefined) ?
Reply | label 1

Ask | What did this assay record as the result for C=CC1CC12C(=O)C1OC2(C)C2C(=O)c3c(O)ccc(O)c3C(=O)C12 (centres undefined) ?
Reply | label 0

Ask | What did this assay record as the result for "Cc1ccc(-c2cc(C3=CC(=O)C=CC3=O)n(-c3ccc(S(N)(=O)=O)cc3)n2)cc1" ?
Reply | label 0

Ask | What did this assay record as the result for C=C(c1ccc(C(=O)N(C)c2ccccc2N)cc1)C(C)N1C(=O)[C@H]2CCCN2C(=O)c2ccccc21 (some centres undefined) ?
Reply | label 0

Ask | What did this assay record as the result for COc1ccc(Cl)cc1NC(=O)C(Br)C(Br)C(=O)O (centres undefined) ?
Reply | label 0

Ask | What did this assay record as the result for "O=Nc1ccc2ccccc2c1O" ?
Reply | label 0

====

system: SF-295 CNS; test: NCI tumour cell line growth inhibition, 48 h
PARAMETER: TGI

Use the examples below as a reference point.
Ask | Requested read-out TGI, target or system SF-295 CNS, entry CC(CO)C1C[C@H](O)[C@@]2(C)CC(=O)C=C(CO)[C@@H]2C1 (stereo partly drawn)
Reply | > 100 µM

Ask | Requested read-out TGI, target or system SF-295 CNS, entry "O=[Se](=O)c1ccccc1.O=[Se](=O)c1ccccc1.[Cu]"
Reply | 29.8 µM

Ask | Requested read-out TGI, target or system SF-295 CNS, entry "Cc1[nH]c2ccccc2c1C=Nc1ccc(N=Cc2c(C)[nH]c3ccccc23)cc1"
Reply | > 100 µM

Here is the next item to consider.
Ask | Requested read-out TGI, target or system SF-295 CNS, entry "CN(C)Cc1cc(O)c(O)c(CN(C)C)c1"
Reply | > 100 µM

====

Reported TGI is given for each of the following compounds.
system: COLO 205 colon; experiment: NCI tumour cell line growth inhibition, 48 h
Report only the number, with the unit µM understood.

Ask | Request the reported TGI associated with "c1ccc2c(c1)nc(NC1CCCC1)c1[nH]c(C3CCCC3)nc12"
Reply | 36.5

More entries:
Ask | Request the reported TGI associated with "CN(C)C(=O)c1cc2cnc(Nc3ccc(-c4csc5c(=O)cc(N6CCOCC6)oc45)cc3)nc2n1C1CCCC1"
Reply | 1.32

Ask | Request the reported TGI associated with COc1cccc2c1C(=O)c1c(O)c3c(c(O)c1C2=O)C[C@@](O)(C(=O)CO)C[C@@H]3OC1C[C@H](N)[C@H](O)[C@H](C)O1 (stereo partly drawn)
Reply | 0.446

Ask | Request the reported TGI associated with COc1cc(CC2c3cc(OC)c(OC)cc3CCN2C)c(Oc2cc3c(cc2OC)-c2c(O)c(OC)cc4c2C(C3)N(C)CC4)cc1OC (stereo not drawn)
Reply | 42.5

Ask | Request the reported TGI associated with CO[C@@H]1/C=C(C)/C=C/[C@@H](C)/C=C(\C)C(=O)OC(/C(C)=C/C=C(\C)CNC(=O)[C@H](CO)NC=O)[C@@H](C)/C=C/C=C/[C@H](OC)CC/C=C(C)/C=C/C1 (stereo partly drawn)
Reply | 0.627
